- Test system: forty-four human cancer cell lines
- procedure.details: Cell proliferation assay (ATPlite, 72 hours) in the 44 cell line Oncolines panel
- Assay type: cell-based
- assay.context: Homo sapiens; cell line MOLT-4; read-out: cell panel IC50, MOLT-4
measured.endpoint: IC50 (µM)
Your answer is read as µM, so omit the unit and give the number.

CC(=O)Nc1cccc(-n2c(=O)n(C3CC3)c(=O)c3c(Nc4ccc(I)cc4F)n(C)c(=O)c(C)c32)c1 : 19.3
CNC(=O)c1cc(Oc2ccc(NC(=O)Nc3ccc(Cl)c(C(F)(F)F)c3)c(F)c2)ccn1 : 3.31
CO[C@H]1C[C@@H]2CC[C@@H](C)[C@@](O)(O2)C(=O)C(=O)N2CCCC[C@H]2C(=O)O[C@H]([C@H](C)C[C@@H]2CC[C@@H](OC(=O)C(C)(CO)CO)[C@H](OC)C2)CC(=O)[C@H](C)/C=C(\C)[C@@H](O)[C@@H](OC)C(=O)[C@H](C)C[C@H](C)/C=C/C=C/C=C/1C : 0.021

Task: Kindly state the measured IC50 obtained for CC(C)(C)c1nc(-c2cccc(NS(=O)(=O)c3c(F)cccc3F)c2F)c(-c2ccnc(N)n2)s1 with forty-four human cancer cell lines.
Output: 29.1

###

Recorded measurements of %-inhibition of SRM, one per entry
- System: panel of more than 300 wild-type and mutant kinases (313 kinase panel)
- procedure.details: Kinase profiling in a biochemical assay panel (mobility shift assays and ELISA), %-inhibition at 1 μM; selectivity entropy
- assay.context: 1 µM
Your answer is read as %, so omit the unit and give the number.

The cases that follow already have their %-inhibition of SRM on record.
COc1cc(Nc2c(C#N)cnc3cc(OCCCN4CCN(C)CC4)c(OC)cc23)c(Cl)cc1Cl : 58
Cc1ccc(Nc2nccc(N(C)c3ccc4c(C)n(C)nc4c3)n2)cc1S(N)(=O)=O : 63
C[C@@H](Oc1cc(-c2cnn(C3CCNCC3)c2)cnc1N)c1c(Cl)ccc(F)c1Cl : 1.51

Task: Fill in the blank: the reported %-inhibition of SRM of C#Cc1cccc(Nc2ncnc3cc(OCCOC)c(OCCOC)cc23)c1 is ____.
Output: 11

Task: Fill in the blank: the reported %-inhibition of SRM of Cc1cn(-c2cc(NC(=O)c3ccc(C)c(Nc4nccc(-c5cccnc5)n4)c3)cc(C(F)(F)F)c2)cn1 is ____.
Output: 27

Task: Fill in the blank: the reported %-inhibition of SRM of N#CC[C@H](C1CCCC1)n1cc(-c2ncnc3[nH]ccc23)cn1 is ____.
Output: 4.69

Task: Fill in the blank: the reported %-inhibition of SRM of COc1cc2c(Nc3ccc(Br)cc3F)ncnc2cc1OCC1CCN(C)CC1 is ____.
Output: 39

Task: Fill in the blank: the reported %-inhibition of SRM of CS(=O)(=O)CCNCc1ccc(-c2ccc3ncnc(Nc4ccc(OCc5cccc(F)c5)c(Cl)c4)c3c2)o1 is ____.
Output: 13

###

- target.desc: panel of more than 300 wild-type and mutant kinases (313 kinase panel) (Homo sapiens)
- Sequence (Q04759 whole entry, change not shown): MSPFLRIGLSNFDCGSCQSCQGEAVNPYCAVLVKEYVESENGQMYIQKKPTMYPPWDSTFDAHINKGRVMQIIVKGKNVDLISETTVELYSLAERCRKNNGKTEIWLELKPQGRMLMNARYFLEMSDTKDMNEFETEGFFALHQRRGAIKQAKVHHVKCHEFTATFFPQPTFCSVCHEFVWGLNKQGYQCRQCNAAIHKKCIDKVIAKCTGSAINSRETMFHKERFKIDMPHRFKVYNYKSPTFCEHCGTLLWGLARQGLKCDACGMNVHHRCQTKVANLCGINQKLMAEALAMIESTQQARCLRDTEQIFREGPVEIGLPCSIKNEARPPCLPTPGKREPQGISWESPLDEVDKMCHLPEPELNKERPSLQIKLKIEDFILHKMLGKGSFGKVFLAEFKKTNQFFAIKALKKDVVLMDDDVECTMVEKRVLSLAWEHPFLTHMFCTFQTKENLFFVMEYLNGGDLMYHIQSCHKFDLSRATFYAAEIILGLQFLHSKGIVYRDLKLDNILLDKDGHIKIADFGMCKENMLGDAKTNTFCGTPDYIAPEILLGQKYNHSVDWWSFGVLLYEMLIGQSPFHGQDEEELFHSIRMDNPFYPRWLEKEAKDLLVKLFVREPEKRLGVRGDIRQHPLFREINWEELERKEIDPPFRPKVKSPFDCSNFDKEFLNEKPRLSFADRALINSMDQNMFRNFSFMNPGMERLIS
- procedure.details: Kinase profiling in a biochemical assay panel (mobility shift assays and ELISA), %-inhibition at 1 μM; selectivity entropy
- assay.context: kinase PKCθ; 1 μM
Recorded measurements of %-inhibition of PKCθ, one per entry

COc1cc2c(Nc3ccc(Br)cc3F)ncnc2cc1OCC1CCN(C)CC1 [vandetanib] : -0.702%
Cc1cn(-c2cc(NC(=O)c3ccc(C)c(Nc4nccc(-c5cccnc5)n4)c3)cc(C(F)(F)F)c2)cn1 [nilotinib] : -3.49%
CNC(=O)c1cc(Oc2ccc(NC(=O)Nc3ccc(Cl)c(C(F)(F)F)c3)c(F)c2)ccn1 [regorafenib] : -7.47%
Cc1ccc(Nc2nccc(N(C)c3ccc4c(C)n(C)nc4c3)n2)cc1S(N)(=O)=O [pazopanib] : -3.47%
CCCS(=O)(=O)Nc1ccc(F)c(C(=O)c2c[nH]c3ncc(-c4ccc(Cl)cc4)cc23)c1F [vemurafenib] : -3%

Task: Fill in the blank: the reported %-inhibition of PKCθ of N#CC[C@H](C1CCCC1)n1cc(-c2ncnc3[nH]ccc23)cn1 [ruxolitinib] is ____.
Output: -1.47%

Task: Fill in the blank: the reported %-inhibition of PKCθ of CC(=O)Nc1cccc(-n2c(=O)n(C3CC3)c(=O)c3c(Nc4ccc(I)cc4F)n(C)c(=O)c(C)c32)c1 [trametinib] is ____.
Output: 0.388%

Task: Fill in the blank: the reported %-inhibition of PKCθ of Cc1ccc(C(=O)Nc2ccc(CN3CCN(C)CC3)c(C(F)(F)F)c2)cc1C#Cc1cnc2cccnn12 [ponatinib] is ____.
Output: 0.0638%

Task: Fill in the blank: the reported %-inhibition of PKCθ of O=S(=O)(c1cccc2cnccc12)N1CCCNCC1 [fasudil] is ____.
Output: 13%

Task: Fill in the blank: the reported %-inhibition of PKCθ of COc1cc(Nc2c(C#N)cnc3cc(OCCCN4CCN(C)CC4)c(OC)cc23)c(Cl)cc1Cl [bosutinib] is ____.
Output: 84%

Task: Fill in the blank: the reported %-inhibition of PKCθ of COc1cc2nccc(Oc3ccc(NC(=O)C4(C(=O)Nc5ccc(F)cc5)CC4)cc3)c2cc1OC [cabozantinib] is ____.
Output: -4.28%

Task: Fill in the blank: the reported %-inhibition of PKCθ of CO[C@H]1C[C@@H]2CC[C@@H](C)[C@@](O)(O2)C(=O)C(=O)N2CCCC[C@H]2C(=O)O[C@H]([C@H](C)C[C@@H]2CC[C@@H](OCCO)[C@H](OC)C2)CC(=O)[C@H](C)/C=C(\C)[C@@H](O)[C@@H](OC)C(=O)[C@H](C)C[C@H](C)/C=C/C=C/C=C/1C [everolimus] is ____.
Output: -8%

Task: Fill in the blank: the reported %-inhibition of PKCθ of CO[C@H]1C[C@@H]2CC[C@@H](C)[C@@](O)(O2)C(=O)C(=O)N2CCCC[C@H]2C(=O)O[C@H]([C@H](C)C[C@@H]2CC[C@@H](OC(=O)C(C)(CO)CO)[C@H](OC)C2)CC(=O)[C@H](C)/C=C(\C)[C@@H](O)[C@@H](OC)C(=O)[C@H](C)C[C@H](C)/C=C/C=C/C=C/1C [temsirolimus] is ____.
Output: -2.62%

Task: Fill in the blank: the reported %-inhibition of PKCθ of C[C@@H](Oc1cc(-c2cnn(C3CCNCC3)c2)cnc1N)c1c(Cl)ccc(F)c1Cl [crizotinib] is ____.
Output: -3%

Data credit: paper PMC3961306
